B1: library; a variant is named by its letters at N, in order (parent)
chain: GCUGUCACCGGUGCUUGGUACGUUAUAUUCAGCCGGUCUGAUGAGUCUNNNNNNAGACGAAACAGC

Variants of: B1
Test: normalized RNA/DNA level with ligand (relative to sTRSVctl = 100) (log10 (% of sTRSVctl)); HEK293T overexpressing SLC46A1; ligand concentration (+) RNA-Seq: 6 mM; higher = less ribozyme self-cleavage, higher mRNA level
Details: with (6R,S)-folinic acid; ligand present: yes
Measured property: normalized RNA/DNA level with ligand (log10)
Give only the figure.

Lab book: normalized RNA/DNA level with ligand (log10) of UGAUUC noted as 2.04

Lab book: normalized RNA/DNA level with ligand (log10) of AGAUAC noted as 2.02

Lab book: normalized RNA/DNA level with ligand (log10) of CUUCGU noted as 2.04

Lab book: normalized RNA/DNA level with ligand (log10) of CGUCGA noted as 2.02

Lab book: normalized RNA/DNA level with ligand (log10) of AGGACA noted as 2.02

Lab book: normalized RNA/DNA level with ligand (log10) of UGUCUA noted as 2.02

Lab book: normalized RNA/DNA level with ligand (log10) of AGGUAA noted as 1.98

Lab book: normalized RNA/DNA level with ligand (log10) of UCACGG noted as 2

Lab book: normalized RNA/DNA level with ligand (log10) of GGCACC noted as 2.02

Lab book: normalized RNA/DNA level with ligand (log10) of CGAUCU noted as 2.06

Lab book: normalized RNA/DNA level with ligand (log10) of UUACUC noted as 2.03

Lab book: normalized RNA/DNA level with ligand (log10) of GUGAGU noted as 2.03

Lab book: normalized RNA/DNA level with ligand (log10) of CACUGA noted as 2.04
